Kindly supply the reported phosphorylation enrichment values for the records listed here.
System: c-Abl (mouse)
Experiment: phosphorylation enrichment, bacterial display (enrichment ratio); higher = better substrate or ligand; peptides without Tyr show the background;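 also: 11-residue human phosphosite peptides and single-mutation variants displayed on the E. coli surface, counted by deep sequencing, each peptide's frequency after selection divided by its frequency in the unselected input library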;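 also: frequency after pTyr selection over input frequency; kinase dosed for 20-30% of maximal phosphorylation in three min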

The recorded phosphorylation enrichment for HSDYQYGQRSQ [PKP2_Y168_S169G] is 0.484

Form: sequence = FLAVGYHQPHI [IDS_Y225_K227Q] ; phosphorylation enrichment = 0.57

Recorded phosphorylation enrichment (sequence AAGGRYFGLVG [HARS1_Y363_D364Y_YF] ): 0.626

Entry PADCRYYTFPQ [GAMT_Y222_A224T] ; phosphorylation enrichment = 1.7

Record summary for SNYRAYATEPQ [TNNI3_Y29_H34Q] : reported phosphorylation enrichment = 0.464

For reference, reported phosphorylation enrichment for RRERPYGGGGG [FUS_Y526] stands at 0.284

Looking up CTLLPYFSARV [DGKE_Y269_YF] , I see its phosphorylation enrichment listed as 1.11

Entry under test: VTVLDYEKIGK [SYT1_Y365_D366E] . Its phosphorylation enrichment was 0.54

phosphorylation enrichment for KPFRVYCDMNT [FGB_Y269_YF] is 0.886

Summary for this sequence, KMTGRYEMYAR [UPB1_Y362] : phosphorylation enrichment is 0.54

The sequence identified as AGTILYHAHLD [ASS1_Y291] registered its phosphorylation enrichment at 0.509

Measured phosphorylation enrichment, YQASYYRRGDR [LTK_Y677_R673Q] : 0.641

The value of phosphorylation enrichment measured for the sequence YHIDHYLGKEM [G6PD_Y202_R198H] turned out to be 0.58

phosphorylation enrichment reading for MMVGAYSSLEG [ECPAS_Y470_T472S] : 0.785

====

Molecular target: EPHB2 (UniProt P29323)
Sequence (P29323 whole entry, looked up): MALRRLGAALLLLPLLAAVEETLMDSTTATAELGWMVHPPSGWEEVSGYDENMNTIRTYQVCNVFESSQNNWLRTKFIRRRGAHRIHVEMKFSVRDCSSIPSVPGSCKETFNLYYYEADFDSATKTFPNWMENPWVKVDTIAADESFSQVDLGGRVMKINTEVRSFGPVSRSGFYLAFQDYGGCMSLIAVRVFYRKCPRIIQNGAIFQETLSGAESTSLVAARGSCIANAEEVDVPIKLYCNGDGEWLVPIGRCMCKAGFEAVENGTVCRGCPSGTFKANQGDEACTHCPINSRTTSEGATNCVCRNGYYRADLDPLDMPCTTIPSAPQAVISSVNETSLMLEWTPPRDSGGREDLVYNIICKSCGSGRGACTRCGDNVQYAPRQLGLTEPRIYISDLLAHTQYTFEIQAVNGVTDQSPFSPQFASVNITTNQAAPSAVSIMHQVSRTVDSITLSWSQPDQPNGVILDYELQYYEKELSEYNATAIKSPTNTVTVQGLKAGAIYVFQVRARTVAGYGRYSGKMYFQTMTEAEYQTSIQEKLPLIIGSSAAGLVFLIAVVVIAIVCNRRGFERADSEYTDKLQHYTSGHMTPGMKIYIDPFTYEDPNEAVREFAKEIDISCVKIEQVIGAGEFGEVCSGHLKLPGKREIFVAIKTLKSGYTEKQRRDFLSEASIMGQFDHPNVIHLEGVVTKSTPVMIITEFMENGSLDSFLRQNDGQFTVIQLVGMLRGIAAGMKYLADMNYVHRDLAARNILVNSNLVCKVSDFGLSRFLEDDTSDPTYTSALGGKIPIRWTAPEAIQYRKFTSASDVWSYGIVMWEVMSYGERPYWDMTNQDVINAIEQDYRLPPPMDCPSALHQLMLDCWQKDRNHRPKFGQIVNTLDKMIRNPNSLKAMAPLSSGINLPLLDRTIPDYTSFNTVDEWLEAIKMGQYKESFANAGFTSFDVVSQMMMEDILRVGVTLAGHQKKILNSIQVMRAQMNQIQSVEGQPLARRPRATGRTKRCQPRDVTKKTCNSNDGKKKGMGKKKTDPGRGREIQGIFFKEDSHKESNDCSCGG
Assay: phosphorylation enrichment, bacterial display (enrichment ratio); higher = better substrate or ligand; peptides without Tyr show the background
# binarize phosphorylation enrichment: threshold 0.6 inclusive, high side True, low side False

Ask: // inclusive: phosphorylation enrichment at least 0.6? input: GDFLSYREFHS [ERBIN_Y1107_YF]
Result: False

Ask: Could you verify whether the entry ALAHKCHGGGG [HBB_Y146_Y146C] shows phosphorylation enrichment of no less than 0.6?
Result: False

Ask: Item ETDTRYFDEEF [AKT1_Y437] with phosphorylation enrichment of 0.6 or above?
Result: True

Ask: Hello, I need to know if QEALEYFMKQT [PIK3CA_Y1038_M1043T] has measured phosphorylation enrichment not below 0.6. Thanks!
Result: True

Ask: Assess whether reported phosphorylation enrichment for TFFQMYDKGLV [IARS2_Y231_YF] sits at 0.6 or higher.
Result: False

Ask: Exam item: decide whether the reported phosphorylation enrichment for GSCQEYTGAPY [NAXD_Y85_G81S] is at least 0.6.
Result: False

Ask: Decide: phosphorylation enrichment of ERLWDCGMSSS [F8_Y1728_Y1728C] >= 0.6?
Result: False

Ask: Is it the case that CEHRGYLFLAI [TEK_Y897_YF] has phosphorylation enrichment reaching or exceeding 0.6?
Result: True

Ask: Reported phosphorylation enrichment reaches at least 0.6 for GSSKIYFLHAD [TLR5_Y108_P112A] ?
Result: False

Ask: Entry GITVAYTIPKK [UBA5_Y372] : is its phosphorylation enrichment no less than 0.6?
Result: False

Ask: Could you verify whether the entry NELTYYCCKKD [CD59_Y87] shows phosphorylation enrichment of no less than 0.6?
Result: True
